Kd overview
Target: human A3AR (Homo sapiens, UniProt P0DMS8)
Assay: [3H]PSB-11 radioligand competition association (Motulsky and Mahan) in Nluc-A3AR HEK293 membranes
Format: binding
Set-up: expressed in transfected cells
Settings: read-out: Kinetics pKD (converted)
Method: Prior to all experiments, membranes from HEK293 membranes expressing human Nluc-A3AR were diluted to 20 μg/well in a total volume of 100 μL/well assay buffer (50 mM Tris-HCl, 5 mM MgCl2, supplemented with 0.01% CHAPS and 1 mM EDTA, pH 7.4) and homogenised using an IKA T10 Ultra-Turrax disperser in 3 × 5 s bursts at 15,000 rpm. […] The binding kinetics of unlabelled ligands was quantified using the competition association assay based on the theoretical framework by Motulsky and Mahan. […]
Report the value in nM with no unit label.

The following compounds have reported results that may help.
COc1ccn2c(c1)nc1c2c(=O)[nH]c(=O)n1Cc1ccccc1 | 29.5
CCCn1c(=O)c2[nH]c(-c3ccc(OCC(=O)NCCNC(=O)[C@H](CO)NC(=O)[C@H](Cc4ccc(O)cc4)NC(=O)CCCCCNC(=O)COc4ccc(/C=C/C5=[N+]6C(=Cc7ccc(-c8cccs8)n7[B-]6(F)F)C=C5)cc4)cc3)nc2n(CCC)c1=O | 18.2
COc1cccc(Cn2c(=O)n(CC3CC3)c(=O)c3c2nc2cc(OC)ccn23)c1 | 0.776

Task: Name the recorded Kd for COc1ccc(-n2nc3c(NC(=O)CCC(=O)NCCOCCOCCNC(=O)CCCCCNC(=O)COc4ccc(/C=C/C5=[N+]6C(=Cc7ccc(-c8cccs8)n7[B-]6(F)F)C=C5)cc4)nc4ccccc4n3c2=O)cc1 .
Result: 23.4

====

target: UniProt:P0DMS8; assay: NanoBRET kinetic competition association with XAC-S-ser-S-tyr-X-BY630 as probe in Nluc-A3AR HEK293 cells; assay type: binding; design: expressed in transfected cells
measure name: pKd
pKd (log units): -log10 of the concentration in mol/L.

COc1cccc(Cn2c(=O)n(CC3CC3)c(=O)c3c2nc2cc(OC)ccn23)c1 | 7.87

Now for a further compound.
Task: Query for UniProt:P0DMS8: what pKd does the record show for COc1ccn2c(c1)nc1c2c(=O)[nH]c(=O)n1Cc1ccccc1 ?
Result: 6.54

====

Target: human A3AR (Homo sapiens)
Sequence (P0DMS8 1-318): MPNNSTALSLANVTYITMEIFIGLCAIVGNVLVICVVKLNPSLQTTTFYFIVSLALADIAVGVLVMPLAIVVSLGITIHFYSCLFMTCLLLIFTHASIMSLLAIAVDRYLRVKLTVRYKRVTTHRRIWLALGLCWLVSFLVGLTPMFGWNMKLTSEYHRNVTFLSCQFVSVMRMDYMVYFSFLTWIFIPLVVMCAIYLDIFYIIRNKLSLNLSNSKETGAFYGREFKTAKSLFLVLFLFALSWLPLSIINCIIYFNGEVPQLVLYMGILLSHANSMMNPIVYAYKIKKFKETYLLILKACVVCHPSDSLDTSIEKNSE
Assay: NanoBRET association kinetics of fluorescent antagonists in live Nluc-A3AR HEK293 cells
Kd overview
Report the value in nM with no unit label.

CCCn1c(=O)c2[nH]c(-c3ccc(OCC(=O)NCCNC(=O)[C@H](CO)NC(=O)[C@H](Cc4ccc(O)cc4)NC(=O)CCCCCNC(=O)CCc4ccc5n4[B-](F)(F)[N+]4=C(C)C=C(C)C4=C5)cc3)nc2n(CCC)c1=O | 17.8
COc1ccc(-n2nc3c(NC(=O)CCC(=O)NCCOCCOCCNC(=O)CCCCCNC(=O)COc4ccc(/C=C/C5=[N+]6C(=Cc7ccc(-c8cccs8)n7[B-]6(F)F)C=C5)cc4)nc4ccccc4n3c2=O)cc1 | 44.7

Now for a further compound.
Task: Name the recorded Kd for CCCn1c(=O)c2[nH]c(-c3ccc(OCC(=O)NCCNC(=O)[C@H](CO)NC(=O)[C@H](Cc4ccc(O)cc4)NC(=O)CCCCCNC(=O)COc4ccc(/C=C/C5=[N+]6C(=Cc7ccc(-c8cccs8)n7[B-]6(F)F)C=C5)cc4)cc3)nc2n(CCC)c1=O .
Result: 2.69
